# assayed_target: human GCN2 full-length protein (Homo sapiens, UniProt Q9P2K8)
# Construct: purchased Carna Biosciences, Inc
# Sequence (Q9P2K8 whole entry): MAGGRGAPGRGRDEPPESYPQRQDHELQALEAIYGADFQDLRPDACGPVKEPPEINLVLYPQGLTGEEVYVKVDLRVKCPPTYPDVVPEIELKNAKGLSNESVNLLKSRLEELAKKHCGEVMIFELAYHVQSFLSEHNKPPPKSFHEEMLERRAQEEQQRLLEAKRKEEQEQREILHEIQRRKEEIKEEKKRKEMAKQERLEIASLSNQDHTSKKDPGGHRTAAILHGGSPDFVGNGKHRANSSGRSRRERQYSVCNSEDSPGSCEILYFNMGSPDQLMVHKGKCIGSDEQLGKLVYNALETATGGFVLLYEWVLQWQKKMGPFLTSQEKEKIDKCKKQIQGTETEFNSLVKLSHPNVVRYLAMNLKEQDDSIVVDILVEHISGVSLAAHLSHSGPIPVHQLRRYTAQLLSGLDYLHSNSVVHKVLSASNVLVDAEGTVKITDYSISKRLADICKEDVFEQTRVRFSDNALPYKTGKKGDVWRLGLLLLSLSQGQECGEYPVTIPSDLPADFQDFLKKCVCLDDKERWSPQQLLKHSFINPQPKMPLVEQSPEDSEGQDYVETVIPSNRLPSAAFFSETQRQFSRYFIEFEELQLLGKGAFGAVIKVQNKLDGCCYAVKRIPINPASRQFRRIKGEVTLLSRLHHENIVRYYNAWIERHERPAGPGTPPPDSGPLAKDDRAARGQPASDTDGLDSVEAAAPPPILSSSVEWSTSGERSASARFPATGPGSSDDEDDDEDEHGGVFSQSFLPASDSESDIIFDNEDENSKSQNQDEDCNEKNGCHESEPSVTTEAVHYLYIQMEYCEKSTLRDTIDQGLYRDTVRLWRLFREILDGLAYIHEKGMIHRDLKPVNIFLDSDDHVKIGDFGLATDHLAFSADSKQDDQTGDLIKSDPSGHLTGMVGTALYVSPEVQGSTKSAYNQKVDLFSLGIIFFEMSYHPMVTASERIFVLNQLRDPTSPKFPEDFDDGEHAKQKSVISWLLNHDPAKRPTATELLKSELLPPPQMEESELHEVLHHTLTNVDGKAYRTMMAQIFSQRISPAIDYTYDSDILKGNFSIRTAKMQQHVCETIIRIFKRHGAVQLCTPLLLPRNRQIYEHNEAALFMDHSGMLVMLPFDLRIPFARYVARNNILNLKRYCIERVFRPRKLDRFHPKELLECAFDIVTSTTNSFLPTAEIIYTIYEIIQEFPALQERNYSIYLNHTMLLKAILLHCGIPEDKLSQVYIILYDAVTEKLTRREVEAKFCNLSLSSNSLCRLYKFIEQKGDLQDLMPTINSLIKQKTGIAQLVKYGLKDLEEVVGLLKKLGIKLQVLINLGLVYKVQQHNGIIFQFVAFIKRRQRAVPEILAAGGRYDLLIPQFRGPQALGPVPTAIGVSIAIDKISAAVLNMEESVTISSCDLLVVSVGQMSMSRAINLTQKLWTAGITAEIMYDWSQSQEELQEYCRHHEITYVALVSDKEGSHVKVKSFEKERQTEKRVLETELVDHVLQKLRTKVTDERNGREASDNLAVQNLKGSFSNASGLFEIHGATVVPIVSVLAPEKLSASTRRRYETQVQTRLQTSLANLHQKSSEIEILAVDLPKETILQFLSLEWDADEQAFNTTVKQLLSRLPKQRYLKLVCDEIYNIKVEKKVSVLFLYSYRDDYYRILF
# measurement_description: GCN2 enzyme inhibition assay (LanthaScreen TR-FRET)
# Format: biochemical
# measurement_parameters: GCN2 enzyme inhibitory activity at compound concentration of 3 μM; Table 3-1; read-out: inhibitory rate
readout_type: inhibition at 3 µM (%)

[[record]]
smiles_input = "Cc1ncc(Cl)cc1S(=O)(=O)Nc1ccc(F)c(C#Cc2cnc(NC(C)C)nc2)c1F"
assayed_target = "human GCN2 full-length protein (Homo sapiens, UniProt Q9P2K8)"
readout_type = "inhibition at 3 µM"
scale_unit = "%"
assay_result = 100

[[record]]
smiles_input = "COc1ncc(Cl)cc1S(=O)(=O)Nc1ccc(F)c(C#Cc2cnc(NC(C)C)nc2)c1F"
assayed_target = "human GCN2 full-length protein (Homo sapiens, UniProt Q9P2K8)"
readout_type = "inhibition at 3 µM"
scale_unit = "%"
assay_result = 99

[[record]]
smiles_input = "O=S(=O)(Nc1ccc(F)c(C#Cc2cnc3[nH]ncc3c2)c1F)c1cc(Cl)cc(Cl)c1"
assayed_target = "human GCN2 full-length protein (Homo sapiens, UniProt Q9P2K8)"
readout_type = "inhibition at 3 µM"
scale_unit = "%"
assay_result = 99

[[record]]
smiles_input = "COc1ncc(Cl)cc1S(=O)(=O)Nc1cccc(C#Cc2cnc(N)nc2)c1Cl"
assayed_target = "human GCN2 full-length protein (Homo sapiens, UniProt Q9P2K8)"
readout_type = "inhibition at 3 µM"
scale_unit = "%"
assay_result = 100

